What follows is literature data on IC50 for Human KLK1 (Homo sapiens (Human)).
Threshold check on IC50: strictly below 0.02 µM is TRUE; on or above 0.02 µM is FALSE.

compound	group-label
COCc1nn(Cc2ccc(Cn3ccccc3=O)cc2)cc1C(=O)NCc1ccccc1C(=O)O	FALSE
COCCN(C)c1ccc(Cn2cc(C(=O)NCc3ccc4c(N)nccc4c3)c(C3CC3)n2)cn1	FALSE
CN(C)CC(=O)N[C@@H](C(=O)NCc1ccc(N)nc1)C(C1CCCCC1)C1CCCCC1	FALSE
Nc1nn(Cc2ccc(Cn3ccccc3=O)cc2F)cc1C(=O)NCCOc1cccc(Cl)c1	FALSE
CC(C)N(C)[C@@H](C)C(=O)N[C@@H](Cc1ccc(F)cc1)C(=O)NCc1ccc(N)nc1	TRUE
COc1cccc(C[C@H](NC(=O)[C@H]2CCCN2C)C(=O)NCc2ccc(N)nc2)c1	FALSE

In plain terms, does `COc1ccnc(CNC(=O)c2cn(Cc3ccc(Cn4ccccc4=O)cc3)nc2N(C)C)c1F` come in under 0.02 µM for IC50? FALSE

Also, `COc1ccc(C#N)c(CNC(=O)c2cn(Cc3ccc(Cn4ccccc4=O)cc3)nc2N(C)C)c1F` please. FALSE

Also, `CCn1c(C(=O)NCc2c(C)cc(CN)cc2C)cc(C)c1Cc1ccc(Cn2cc(C)cn2)cc1` please. FALSE

Also, `COCc1nn(Cc2ccc3c(c2)CCN(C(C)C)C3)cc1C(=O)NCc1c(-n2ccc(C#N)n2)ccc(OC)c1F` please. FALSE

Also, CCC(C)[C@@H](NS(C)(=O)=O)C(=O)N[C@@H](Cc1ccc(Cl)c(Cl)c1)C(=O)NCc1ccc(N)nc1 (stereo partly shown) please. TRUE

Also, `Cc1cnn(Cc2ccc(Cn3cc(C(=O)NCc4ccc5c(N)nccc5c4)c(C(C)C)n3)cc2)c1` please. FALSE

Also, `Cc1ccc2cc(Cn3ncc(C(=O)NCc4c(C)cc(CN)cc4C)c3C(F)(F)F)ccc2n1` please. FALSE

Also, `Nc1ccc(CNC(=O)[C@H](CC2CCCCC2)NC(=O)c2cc3ccccc3[nH]2)cn1` please. FALSE

Also, `COCc1nn(Cc2ccc3c(c2)CNC3)cc1C(=O)NCc1c(-n2cc(C)nn2)ccc(OC)c1F` please. FALSE

Also, `Cc1cc(C)c(C(=O)N[C@@H](Cc2ccc3ccccc3n2)C(=O)NCc2ccc(N)nc2)[nH]1` please. TRUE

Also, `CN(C)[C@H](Cc1ccccc1)C(=O)N[C@@H](Cc1ccc(Cl)c(Cl)c1)C(=O)NCc1ccc(N)nc1` please. TRUE

Also, `Cc1cc(C(=O)NCc2ccc(CN)cc2)c(C)n1Cc1cc(-c2ccncc2)cs1` please. FALSE

Also, `COCc1nn(Cc2ccc(Cn3cc(C)cn3)cc2)cc1C(=O)NCCOc1cccc(Cl)c1` please. FALSE

Also, CC(CNC(=O)c1cn(Cc2ccc(Cn3ccccc3=O)cc2)nc1N)Oc1cccc(Cl)c1 (racemic) please. FALSE

Also, `COc1ccc(-n2cc(C)nn2)c(CNC(=O)c2cn(Cc3cc4n(n3)CCN(C)C4)nc2C(F)F)c1F` please. FALSE

Also, `COc1ccc(-n2cc(C)nn2)c(CNC(=O)c2cn(Cc3cc4n(n3)CCN(C)C4)nc2C(F)(F)F)c1F` please. FALSE

Also, `CN[C@@H](C)C(=O)N[C@@H](Cc1ccc(F)cc1)C(=O)NCc1ccc(N)nc1` please. TRUE

Also, `Nc1nccc2cc(CNC(=O)c3cncc(CN4CCN(S(=O)(=O)c5ccccc5)CC4)c3)ccc12` please. FALSE

Also, `Nc1nn(Cc2ccnc(N3CCCC3)c2)cc1C(=O)NCCOc1cccc(Cl)c1` please. FALSE

* * *

What follows is literature data on IC50 for Human KLK1 (Homo sapiens (Human), UniProt P06870).
Numbers only, in nM.

Worked examples follow.
compound	IC50 [nM]
Nc1ccc(CNC(=O)[C@H](Cc2cccc(C(F)(F)F)c2)NC(=O)c2cc3ccccc3[nH]2)cn1	22
CC(C)[C@@H](N)C(=O)N[C@@H](CC1CCCC2CCCCC21)C(=O)NCc1ccc(N)nc1 (stereo partly shown)	0.96
Cc1cc[nH]c1C(=O)N[C@@H](Cc1ccc(F)c(F)c1)C(=O)NCc1ccc(N)nc1	10.1
CN1CCC[C@@H]1C(=O)N[C@@H](Cc1cccc2ccccc12)C(=O)NCc1ccc(N)nc1	3.6
CCN(CC)[C@@H](C)C(=O)N[C@@H](Cc1ccc(F)cc1)C(=O)NCc1ccc(N)nc1	2.7

Provide IC50 for all items below, preserving their order.
1. CCC(C)[C@@H](N)C(=O)N[C@@H](Cc1ccccc1C)C(=O)NCc1ccc(N)nc1 (stereo partly shown)
2. CC(C)N(C(C)C)[C@@H](C)C(=O)N[C@@H](Cc1ccc(F)cc1)C(=O)NCc1ccc(N)nc1
3. CCC(C)[C@@H](N)C(=O)N[C@@H](Cc1cccc2ccccc12)C(=O)NCc1ccc(N)nc1 (stereo partly shown)
4. CCC(C)[C@@H](NC)C(=O)N[C@@H](Cc1cccc2ccccc12)C(=O)NCc1ccc(N)nc1C (stereo partly shown)
5. CC1CCN(c2ccc(Cc3cncc(C(=O)NCc4ccc5c(N)nccc5c4)c3)cn2)C1 (stereo not shown)
6. Cc1cc(C)c(C(=O)N[C@@H](Cc2ccc(O)cc2)C(=O)NCc2ccc(N)nc2)[nH]1
7. CC(C)N1CCCC[C@@H]1C(=O)N[C@@H](Cc1ccc(F)cc1)C(=O)NCc1ccc(N)nc1

1. 32.1
2. 34.3
3. 0.96
4. 4.5
5. 6550
6. 200
7. 49.6

Provide IC50 for all items below, preserving their order.
1. Cc1cccc(C[C@H](NC(=O)c2cc3ccccc3[nH]2)C(=O)NCc2ccc(N)nc2C)c1
2. CCOc1cc(Cn2cc(C(=O)NCc3ccc4c(N)nccc4c3)c(C(F)(F)F)n2)cnc1Cl

1. 110
2. 2770

* * *

What follows is literature data on IC50 for UniProt P06870.

Worked examples follow.
molecule	IC50
CN1CCC[C@@H]1C(=O)N[C@@H](Cc1cccc(C(F)(F)F)c1)C(=O)NCc1ccc(N)nc1	0.0021 µM
COCc1nn(Cc2ccc3c(c2)CCOC3)cc1C(=O)NCc1c(-n2cc(C)nn2)ccc(OC)c1F	> 40 µM
Cc1cnn(Cc2ccc(Cn3cc(C(=O)NCc4ncccc4F)c(C(F)(F)F)n3)cc2)c1	> 10 µM
Cc1ccc2cc(Cn3c(C)cc(C(=O)NCc4c(C)cc(CN)cc4C)c3C)ccc2n1	2.66 µM
COc1cccc(CNC(=O)c2cn(Cc3ccc(Cn4ccccc4=O)cc3)c(C(F)(F)F)n2)c1F	> 10 µM

Provide IC50 for all items below, preserving their order.
1. COCc1nn(Cc2ccc3c(c2)C(C)(C)N(C)C3)cc1C(=O)NCc1c(-n2cc(C)nn2)ccc(OC)c1F
2. COCc1nn(Cc2ccc(Cn3cc(F)ccc3=O)cc2)cc1C(=O)NCc1nccc(OC)c1F

["> 40 µM", "> 40 µM"]

Name the recorded IC50 for CC1CCCC(C)N1CC(=O)N[C@@H](Cc1ccc(Cl)cc1)C(=O)NCc1ccc(N)nc1 (some centres unmarked) . 0.0027 µM

* * *

What follows is literature data on IC50 for Human KLK1 (Homo sapiens (Human)).
Answers are plain numbers, in µM.

Provide IC50 for all items below, preserving their order.
1. Cc1cnn(Cc2ccc(CN3CCOc4c(NCc5ccc6c(N)nccc6c5)ncnc43)cc2)c1
2. Nc1nccc2cc(CNC(=O)c3cncc(Cc4ccnc(N5CCC(O)C5)c4)c3)ccc12 (stereo not shown)
3. Cc1cc(C(=O)NCc2ccc(CN)cc2)c(C)n1Cc1ccc(CN)cc1
4. Cc1ccc(C[C@H](NC(=O)[C@H]2CCCN2C(C)C)C(=O)NCc2ccc(N)nc2)cc1
5. Nc1nccc2cc(CNC(=O)c3cn(Cc4ccc(N5CC[C@@H](CO)C5)nc4)nc3C(F)(F)F)ccc12
6. Cc1cc(C)c(C(=O)N[C@@H](Cc2c(F)c(F)c(F)c(F)c2F)C(=O)NCc2ccc(N)nc2)[nH]1

1: 5.04; 2: 9.57; 3: 6.97; 4: 0.0014; 5: 4.91; 6: 0.128

* * *

What follows is literature data on IC50 for Human KLK1 (Homo sapiens (Human)).
One number for each entry, in µM.

Worked examples follow.
compound	assay-system	test-readout	measured-number
Nc1ccc(CNC(=O)[C@H](Cc2ccc(F)c(F)c2)NC(=O)CN2CCCc3ccccc32)cn1	Human KLK1 (Homo sapiens (Human))	IC50	0.0783
CCN(CC)CC(=O)N[C@@H](Cc1ccc(F)c(F)c1)C(=O)NCc1ccc(N)nc1	Human KLK1 (Homo sapiens (Human))	IC50	0.0137
Cc1ccc(C[C@H](NC(=O)[C@H]2CCCN2C)C(=O)NCc2ccc(N)nc2)cc1	Human KLK1 (Homo sapiens (Human))	IC50	0.0039
CCOc1ncc(Cn2cc(C(=O)NCc3ccc4c(N)nccc4c3)c(C(F)(F)F)n2)cc1F	Human KLK1 (Homo sapiens (Human))	IC50	1.3
CCC(C)[C@@H](C(=O)N[C@@H](Cc1ccc(F)cc1)C(=O)NCc1ccc(N)nc1)N(C)C(C)C (stereo partly shown)	Human KLK1 (Homo sapiens (Human))	IC50	0.0073

Provide IC50 for all items below, preserving their order.
1. Cc1cnn(Cc2ccc(Cn3cc(C(=O)NCc4ccc5c(N)nccc5c4)ccc3=O)cc2)c1
2. Cc1cnn(Cc2nc(Cn3cc(C(=O)NCc4ccc5c(N)nccc5c4)c(C(F)(F)F)n3)cs2)c1

[17.6, 4.71]
